system: MCF-7 cells; assay: MTT cell viability assay, MCF-7; format: cell-based, human; conditions: Homo sapiens, MCF7, 72 h, 72 h treatment
Response field label: string, one of Condition met (IC50 strictly below 10 µM) or Condition not met.

- COC(=O)C(C)NC(=O)CNc1nc(Nc2ccccc2)nc(N2CCCCC2)n1 (centres unmarked): Condition not met
- COC(=O)C(C)NC(=O)CNc1nc(Nc2ccc(Cl)cc2)nc(N2CCOCC2)n1 (centres unmarked): Condition met
- COC(=O)CNC(=O)CCNc1nc(Nc2ccc(Cl)cc2)nc(N2CCOCC2)n1: Condition not met
- COC(=O)C(C)NC(=O)CNc1nc(Nc2ccccc2)nc(N2CCOCC2)n1 (centres unmarked): Condition met

Input COC(=O)CNC(=O)CNc1nc(Nc2ccc(Cl)cc2)nc(N2CCOCC2)n1 ; condition: IC50 strictly below 10 µM. Does it hold?
Condition met

Now this one: COC(=O)C(NC(=O)CNc1nc(Nc2ccc(Cl)cc2)nc(N2CCOCC2)n1)C(C)C (centres unmarked)
Condition not met

Now this one: COC(=O)CNC(=O)CNc1nc(Nc2ccc(OC)cc2)nc(N2CCOCC2)n1
Condition not met

Now this one: COC(=O)C(NC(=O)CCNc1nc(Nc2ccc(Cl)cc2)nc(N2CCCCC2)n1)C(C)C (centres unmarked)
Condition met

These data points were gathered from paper PMC7926980.
